# assayed_system: D1 (Homo sapiens)
# Sequence (P21728 whole entry): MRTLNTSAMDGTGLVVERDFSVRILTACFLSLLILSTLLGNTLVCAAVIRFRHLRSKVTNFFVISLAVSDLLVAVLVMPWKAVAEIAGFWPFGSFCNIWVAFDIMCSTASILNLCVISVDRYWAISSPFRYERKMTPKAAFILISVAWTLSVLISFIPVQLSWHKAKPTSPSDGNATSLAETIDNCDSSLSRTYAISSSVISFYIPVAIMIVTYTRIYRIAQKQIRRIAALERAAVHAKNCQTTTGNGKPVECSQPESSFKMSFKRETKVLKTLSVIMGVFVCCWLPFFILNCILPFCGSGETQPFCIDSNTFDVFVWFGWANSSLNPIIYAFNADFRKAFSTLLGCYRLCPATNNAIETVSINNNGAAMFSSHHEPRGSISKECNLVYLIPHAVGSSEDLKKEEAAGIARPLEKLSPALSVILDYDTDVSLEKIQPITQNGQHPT
# assay_procedure: Radioligand binding for selectivity, D1
# experimental_setup: read-out: Binding affinity (Inhibition rate % at 10 μM) D1
Think of 20% as a floor: if inhibition at 10 µM stands on it or above, it is rule met; beneath it, rule not met.

stdin: Threshold query (inhibition at 10 µM >= 20%) on COc1ccc(C2(C)C(=O)Nc3cc(Cl)cc(Cl)c3C2=O)cc1[N+](=O)[O-] (centres unmarked) [Example 21]
stdout: rule met

* * *

# assayed_system: 5-HT2c (Homo sapiens, UniProt P28335)
# Construct: purchased Euroscreen/BioSignal Packard Inc
# Sequence (P28335 33-458): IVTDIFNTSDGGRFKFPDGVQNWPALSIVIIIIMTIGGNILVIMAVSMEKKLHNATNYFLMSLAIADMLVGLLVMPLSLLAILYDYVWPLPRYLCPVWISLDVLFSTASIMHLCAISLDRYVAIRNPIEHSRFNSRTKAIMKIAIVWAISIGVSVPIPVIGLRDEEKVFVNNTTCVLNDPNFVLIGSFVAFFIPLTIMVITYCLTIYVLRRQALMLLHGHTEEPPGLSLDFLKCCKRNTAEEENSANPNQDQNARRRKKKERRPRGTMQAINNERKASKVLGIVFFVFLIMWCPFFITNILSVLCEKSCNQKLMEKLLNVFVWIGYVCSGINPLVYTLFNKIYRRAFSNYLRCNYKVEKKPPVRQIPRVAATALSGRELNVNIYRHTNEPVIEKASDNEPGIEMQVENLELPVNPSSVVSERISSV
# assay_procedure: Radioligand binding, 5-HT2c ([3H]Mesulergine)
# experimental_setup: read-out: Binding affinity (Inhibition rate % at 10 μM) 5HT2c
readout_label: inhibition at 10 µM (%)
Output spec: scalar in %, unitless text.

// worked examples, inhibition at 10 µM included
1. CC1(c2ccc([N+](=O)[O-])cc2)C(=O)Nc2cc(Cl)cc(Cl)c2C1=O (stereo not drawn) [Example 14] :: 3.8
2. C[C@H](NC(=O)Nc1cccc([C@]2(C)C(=O)Nc3cc(Cl)cc(Cl)c3C2=O)c1)c1ccccc1 [Example 44] :: 21.5
3. CN(C)c1cc(Cl)c2c(c1)NC(=O)C(C)(c1ccccc1)C2=O (stereo not drawn) [Example 11] :: 20
4. CN(C)c1ccc(C2(C)C(=O)Nc3cc(Cl)cc(Cl)c3C2=O)cc1 (stereo not drawn) [Example 40] :: 6.5
5. COc1cc(C2(C)C(=O)Nc3ccccc3C2=O)ccc1O (stereo not drawn) [Example 31] :: 10.2

stdin: Record lookup: for 5-HT2c (Homo sapiens, UniProt P28335), what inhibition at 10 µM belongs to C[C@H](NC(=O)Oc1ccc(C2(C)C(=O)Nc3cc(Cl)cc(Cl)c3C2=O)cc1)c1ccccc1 (stereo partly drawn) [Example 25] ?
stdout: 4

stdin: Thanks! And CC1(c2ccccc2)C(=O)Nc2cc(Cl)ccc2C1=O (stereo not drawn) [Example 3] ?
stdout: 8.9

stdin: Ok, now CC1(c2ccc(O)cc2)C(=O)Nc2ccccc2C1=O (stereo not drawn) [Example 34]
stdout: 20.1

stdin: One more compound: CN1CCN(c2cc(Cl)c3c(c2)NC(=O)C(C)(c2ccc(O)cc2)C3=O)CC1 (stereo not drawn) [Example 47]
stdout: 12.4

stdin: What would you report for COc1ccc(C2(C)C(=O)Nc3cc(OC)cc(Cl)c3C2=O)cc1 (stereo not drawn) [Example 35] ?
stdout: 16.4

stdin: Entry to check: CCNc1ccc(C2(C)C(=O)Nc3cc(Cl)cc(Cl)c3C2=O)cc1 (stereo not drawn) [Example 41]
stdout: 14

stdin: Same read-out for CC1(c2ccc(Br)cc2)C(=O)Nc2cc(Cl)cc(Cl)c2C1=O (stereo not drawn) [Example 18] ?
stdout: 10.7

stdin: Same again, this time with CN1CCN(c2ccc3c(c2)NC(=O)C(C)(c2ccc(N)cc2)C3=O)CC1 (stereo not drawn) [Example 50]
stdout: 15.4
